Task for the reader: assign each of the following molecules its reported Solubility (wt %).
# test name: Determination of Aqueous Solubility (pH-4.5) by Miniaturized Shake Flask Method
# Assay type: physicochemical
# condition details: ultrapure water pH 4.5, 22° C., highest test concentration 1% w/v
Number only, in wt %; omit the unit.

The recorded Solubility (wt %) for entry CCCCCCCCCC(=O)NO [Compound No. 3, Decylhydroxamic Acid] equals 0.0025

The recorded Solubility (wt %) for entry CCCCCCCC(=O)NO [Caprylhydroxamic Acid, reference compound] equals 0.1358

The recorded Solubility (wt %) for entry CCCCCCCCCCCC(=O)NO [compound 2, Laurylhydroxamic Acid] equals 0.0022

The recorded Solubility (wt %) for entry O=C(CCCCCCC(=O)NO)NO [Compound No. 9, N, N′-dihydroxyoctanediamide] equals 0.248

====

# System: Burkholderia cepacia (ATCC 25416)
# test name: Anti-bacterial MIC, microbroth dilution
# Format: cell-based
# condition details: pH 4.5, CAMHB, 37° C., 24 hours
Task for the reader: assign each of the following compounds its reported MIC (%) B. cepacia.
Number only, in %; omit the unit.

The recorded MIC (%) B. cepacia for entry O=C(CC(O)C(=O)NO)NO (stereo not shown) [Compound No. 7, N, N′, 2-trihydroxy butane diamide] equals 0.016

The recorded MIC (%) B. cepacia for entry CCCCCC(=O)NO [Compound No. 1, Hexylhydroxamic Acid] equals 0.0625

====

# Tested on: Staphylococcus aureus (ATCC 6538)
# test name: Anti-bacterial MIC, microbroth dilution
# Format: cell-based
# condition details: pH 4.5, CAMHB, 37° C., 24 hours
So basically: is MIC (%) S. Aureus under 0.1%? Then satisfied. Not under? Then not satisfied.

Problem: # check: MIC (%) S. Aureus < 0.1% for CCCCCCCC(=O)NO [Caprylhydroxamic Acid, reference compound]
Solution: satisfied

Problem: # check: MIC (%) S. Aureus < 0.1% for O=C(NO)c1ccc(O)cc1 [Compound No. 6, p-hydroxy Benzhydroxamic Acid]
Solution: not satisfied

Problem: # check: MIC (%) S. Aureus < 0.1% for CCCCCC(=O)NO [Compound No. 1, Hexylhydroxamic Acid]
Solution: not satisfied

Problem: # check: MIC (%) S. Aureus < 0.1% for O=C(NO)c1ccccc1 [Compound No. 5, Benzhydroxamic Acid]
Solution: not satisfied

Problem: # check: MIC (%) S. Aureus < 0.1% for O=C(CC(O)C(=O)NO)NO (stereo not drawn) [Compound No. 7, N, N′, 2-trihydroxy butane diamide]
Solution: satisfied

Problem: # check: MIC (%) S. Aureus < 0.1% for O=C(CCC(=O)NO)NO [Compound No. 8, N, N′-dihydroxysuccinamide]
Solution: satisfied

====

# Tested on: Burkholderia cepacia (ATCC 25416)
# test name: Anti-bacterial MIC, microbroth dilution
# Type: cell-based
# condition details: pH 4.5, CAMHB, 37° C., 24 hours
observable: MIC (%) B. cepacia
Number only, in %; omit the unit.

Bench note, Burkholderia cepacia (ATCC 25416): O=C(CCC(=O)NO)NO [Compound No. 8, N, N′-dihydroxysuccinamide] , MIC (%) B. cepacia reads 0.031

Bench note, Burkholderia cepacia (ATCC 25416): O=C(NO)c1ccccc1 [Compound No. 5, Benzhydroxamic Acid] , MIC (%) B. cepacia reads 0.125

Bench note, Burkholderia cepacia (ATCC 25416): CCCCCCCC(=O)NO [Caprylhydroxamic Acid, reference compound] , MIC (%) B. cepacia reads 0.017

Bench note, Burkholderia cepacia (ATCC 25416): O=C(NO)c1ccc(O)cc1 [Compound No. 6, p-hydroxy Benzhydroxamic Acid] , MIC (%) B. cepacia reads 0.031

====

# System: Staphylococcus aureus (ATCC 6538)
# test name: Anti-bacterial MIC, microbroth dilution
# Assay type: cell-based
# condition details: pH 4.5, CAMHB, 37° C., 24 hours
Marks after values point to notes of the source that are not given here.
observable: MIC (%) S. Aureus

The recorded MIC (%) S. Aureus for entry CCCCCCCCCC(=O)NO [Compound No. 3, Decylhydroxamic Acid] equals >0.00125* %

The recorded MIC (%) S. Aureus for entry O=C(CCCCCCC(=O)NO)NO [Compound No. 9, N, N′-dihydroxyoctanediamide] equals >0.124* %

The recorded MIC (%) S. Aureus for entry CCCCCCCCCCCC(=O)NO [compound 2, Laurylhydroxamic Acid] equals >0.0011* %
